Wheat plant response rating by entry:
system: wheat; assay: Test A postemergence; assay type: in vivo, Triticum aestivum; settings: 125 g ai/ha, 0 to 100 scale where 0 is no effect and 100 is complete control
Excerpt: […]
Reply briefly: the number, and no unit.

Known Wheat plant response rating results, listed for orientation:
compound: COc1cnc(Oc2cccc(C#N)c2-n2cc(Br)cn2)nc1 [Compound 218]
Wheat plant response rating: 0
//
compound: N#Cc1cnn(-c2c(C=O)cccc2Oc2ncc(Cl)cn2)c1 [Compound 237]
Wheat plant response rating: 0
//
compound: COc1cnn(-c2c(F)cccc2Oc2ncc(Cl)cn2)c1 [Compound 121]
Wheat plant response rating: 0
//
compound: FC(F)(F)c1cnn(-c2c(Cl)cccc2Oc2ncc(Cl)cn2)c1 [Compound 167]
Wheat plant response rating: 20
//
compound: FC(F)c1cccc(Oc2ncc(Br)cn2)c1-n1cc(Br)cn1 [Compound 231]
Wheat plant response rating: 20
//
compound: O=Cc1cccc(Oc2ncc(F)cn2)c1-n1cc(C(F)(F)F)cn1 [Compound 162]
Wheat plant response rating: 0
//
compound: N#Cc1cnc(Oc2cccc(C=O)c2-n2cc(Br)cn2)nc1 [Compound 174]
Wheat plant response rating: 0

Now, please, on to the next compound.
Q) Record lookup: for wheat, what Wheat plant response rating belongs to N#Cc1cnc(Oc2cccc(C#N)c2-n2cc(Br)cn2)nc1 [Compound 214] ?
A) 0

The measurements presented in this section are drawn from patent US9695155B2.
